# koff values compiled below
Target: T1, antigen (11A12) containing the ED-A domain of human fibronectin (human, UniProt P02751 1629-1905)
T1 construct: Immobilised on a CM5 chip by amine coupling
T1 sequence (P02751 other isoform, or with tags, fused parts or gaps limits assumed): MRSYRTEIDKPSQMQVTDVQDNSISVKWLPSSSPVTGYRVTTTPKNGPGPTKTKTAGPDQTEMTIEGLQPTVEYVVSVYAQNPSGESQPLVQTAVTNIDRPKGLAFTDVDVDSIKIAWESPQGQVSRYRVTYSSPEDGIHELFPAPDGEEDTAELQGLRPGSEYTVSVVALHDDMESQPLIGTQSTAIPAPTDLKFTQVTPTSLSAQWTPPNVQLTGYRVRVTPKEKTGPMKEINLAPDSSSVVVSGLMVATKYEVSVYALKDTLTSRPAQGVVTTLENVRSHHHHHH
Experiment: SPR (BIAcore), monomeric scFv over 11A12 immobilised on CM5 chip
Procedure: The kₒₙ, koff and KD of the parent anti-ED-A antibody and anti-ED-A antibodies B2, C5, D5, C8, F8, B7 and G9 were evaluated using Surface Plasmon Resonance. The chip was equilibrated over night with the same buffer used during the assay at a buffer flow rate of 5 μl/min. The whole coating procedure was performed at this flow rate. […] Each sample was assayed at a flow rate 20 μl/min. […] The kₒₙ, koff and KD values for each anti-ED-A antibody were evaluated using the BIAevaluation software.
The reply should contain only the number, in s⁻¹.

Examples with answers:
binder: anti-ED-A antibody G9 (scFv, scFv; Supernatant in BIAcore analysis 1, purified monomeric fraction in BIAcore analysis 2) scFv: EVQLVESGGGLVQPGGSLRLSCAASGFTFSHMQMSWVRQAPGKGLEWVSAISGSGGSTYYADSVKGRFTISRDNSKNTLYLQMNSLRAEDTAVYYCAKSTHLYLFDYWGQGTLVTVSSGGGGSGGGGSGGGGSGGGGSEIVLTQSPGTLSLSPGEKATLSCRASQSVSTAFLAWYQQKPGQAPRLLIYGASSRATGIPDRFSGSGSGTDFTLTISRLEPEDFAVYYCQQMRGRPPTFGQGTKVEIKAAAEQKLISEEDLNGAA
koff (s⁻¹): 0.00754
//
binder: anti-ED-A antibody B7 (scFv, scFv; Supernatant in BIAcore analysis 1, purified monomeric fraction in BIAcore analysis 2) scFv: EVQLVESGGGLVQPGGSLRLSCAASGFTFSHFDMSWVRQAPGKGLEWVSAISGSGGSTYYADSVKGRFTISRDNSKNTLYLQMNSLRAEDTAVYYCAKSTHLYLFDYWGQGTLVTVSSGGGGSGGGGSGGGGSGGGGSEIVLTQSPGTLSLSPGEKATLSCRASQSVSLAFLAWYQQKPGQAPRLLIYGASSRATGIPDRFSGSGSGTDFTLTISRLEPEDFAVYYCQQMRGRPPTFGQGTKVEIKAAAEQKLISEEDLNGAA
koff (s⁻¹): 0.0045
//
binder: anti-ED-A antibody B2 (scFv, scFv; Supernatant in BIAcore analysis 1, purified monomeric fraction in BIAcore analysis 2) scFv: EVQLVESGGGLVQPGGSLRLSCAASGFTFSAAKMSWVRQAPGKGLEWVSAISGSGGSTYYADSVKGRFTISRDNSKNTLYLQMNSLRAEDTAVYYCAKSTHLYLFDYWGQGTLVTVSSGGGGSGGGGSGGGGSGGGGSEIVLTQSPGTLSLSPGEKATLSCRASQSVSVAFLAWYQQKPGQAPRLLIYGASSRATGIPDRFSGSGSGTDFTLTISRLEPEDFAVYYCQQMRGRPPTFGQGTKVEIKAAAEQKLISEEDLNGAA
koff (s⁻¹): 0.00754
//
binder: anti-ED-A antibody D5 (scFv, scFv; Supernatant in BIAcore analysis 1, purified monomeric fraction in BIAcore analysis 2) scFv: EVQLVESGGGLVQPGGSLRLSCAASGFTFSVMKMSWVRQAPGKGLEWVSAISGSGGSTYYADSVKGRFTISRDNSKNTLYLQMNSLRAEDTAVYYCAKSTHLYLFDYWGQGTLVTVSSGGGGSGGGGSGGGGSGGGGSEIVLTQSPGTLSLSPGEKATLSCRASQSVSNAFLAWYQQKPGQAPRLLIYGASSRATGIPDRFSGSGSGTDFTLTISRLEPEDFAVYYCQQMRGRPPTFGQGTKVEIKAAAEQKLISEEDLNGAA
koff (s⁻¹): 0.0076
//
binder: anti-ED-A antibody C8 (scFv, scFv; Supernatant in BIAcore analysis 1, purified monomeric fraction in BIAcore analysis 2) scFv: EVQLVESGGGLVQPGGSLRLSCAASGFTFSLQTMSWVRQAPGKGLEWVSAISGSGGSTYYADSVKGRFTISRDNSKNTLYLQMNSLRAEDTAVYYCAKSTHLYLFDYWGQGTLVTVSSGGGGSGGGGSGGGGSGGGGSEIVLTQSPGTLSLSPGEKATLSCRASQSVSLPFLAWYQQKPGQAPRLLIYGASSRATGIPDRFSGSGSGTDFTLTISRLEPEDFAVYYCQQMRGRPPTFGQGTKVEIKAAAEQKLISEEDLNGAA
koff (s⁻¹): 0.0053

Turning now to a further record.
So what does the record say about koff for anti-ED-A antibody F8 (scFv, scFv format, not the F8 diabody; Supernatant in BIAcore analysis 1, purified monomeric fraction in BIAcore analysis 2; also called anti-ED-A scFv F8) scFv: EVQLVESGGGLVQPGGSLRLSCAASGFTFSLFTMSWVRQAPGKGLEWVSAISGSGGSTYYADSVKGRFTISRDNSKNTLYLQMNSLRAEDTAVYYCAKSTHLYLFDYWGQGTLVTVSSGGGGSGGGGSGGGGSGGGGSEIVLTQSPGTLSLSPGEKATLSCRASQSVSMPFLAWYQQKPGQAPRLLIYGASSRATGIPDRFSGSGSGTDFTLTISRLEPEDFAVYYCQQMRGRPPTFGQGTKVEIKAAAEQKLISEEDLNGAA ?
0.0014
